FYI, the data here is from patent US9567322B2.

For each entry below, report its Maximum % activity value.
# Study Target: F508delCFTR (Homo sapiens, UniProt P13569, DEL508-508)
# Construct: expressed in transfected cells; host or cells: CFBE41o- (CFBE41o-F508delCFTR-HRP), doxycycline-inducible
# Sequence (P13569 with tags, fused parts or gaps DEL508-508): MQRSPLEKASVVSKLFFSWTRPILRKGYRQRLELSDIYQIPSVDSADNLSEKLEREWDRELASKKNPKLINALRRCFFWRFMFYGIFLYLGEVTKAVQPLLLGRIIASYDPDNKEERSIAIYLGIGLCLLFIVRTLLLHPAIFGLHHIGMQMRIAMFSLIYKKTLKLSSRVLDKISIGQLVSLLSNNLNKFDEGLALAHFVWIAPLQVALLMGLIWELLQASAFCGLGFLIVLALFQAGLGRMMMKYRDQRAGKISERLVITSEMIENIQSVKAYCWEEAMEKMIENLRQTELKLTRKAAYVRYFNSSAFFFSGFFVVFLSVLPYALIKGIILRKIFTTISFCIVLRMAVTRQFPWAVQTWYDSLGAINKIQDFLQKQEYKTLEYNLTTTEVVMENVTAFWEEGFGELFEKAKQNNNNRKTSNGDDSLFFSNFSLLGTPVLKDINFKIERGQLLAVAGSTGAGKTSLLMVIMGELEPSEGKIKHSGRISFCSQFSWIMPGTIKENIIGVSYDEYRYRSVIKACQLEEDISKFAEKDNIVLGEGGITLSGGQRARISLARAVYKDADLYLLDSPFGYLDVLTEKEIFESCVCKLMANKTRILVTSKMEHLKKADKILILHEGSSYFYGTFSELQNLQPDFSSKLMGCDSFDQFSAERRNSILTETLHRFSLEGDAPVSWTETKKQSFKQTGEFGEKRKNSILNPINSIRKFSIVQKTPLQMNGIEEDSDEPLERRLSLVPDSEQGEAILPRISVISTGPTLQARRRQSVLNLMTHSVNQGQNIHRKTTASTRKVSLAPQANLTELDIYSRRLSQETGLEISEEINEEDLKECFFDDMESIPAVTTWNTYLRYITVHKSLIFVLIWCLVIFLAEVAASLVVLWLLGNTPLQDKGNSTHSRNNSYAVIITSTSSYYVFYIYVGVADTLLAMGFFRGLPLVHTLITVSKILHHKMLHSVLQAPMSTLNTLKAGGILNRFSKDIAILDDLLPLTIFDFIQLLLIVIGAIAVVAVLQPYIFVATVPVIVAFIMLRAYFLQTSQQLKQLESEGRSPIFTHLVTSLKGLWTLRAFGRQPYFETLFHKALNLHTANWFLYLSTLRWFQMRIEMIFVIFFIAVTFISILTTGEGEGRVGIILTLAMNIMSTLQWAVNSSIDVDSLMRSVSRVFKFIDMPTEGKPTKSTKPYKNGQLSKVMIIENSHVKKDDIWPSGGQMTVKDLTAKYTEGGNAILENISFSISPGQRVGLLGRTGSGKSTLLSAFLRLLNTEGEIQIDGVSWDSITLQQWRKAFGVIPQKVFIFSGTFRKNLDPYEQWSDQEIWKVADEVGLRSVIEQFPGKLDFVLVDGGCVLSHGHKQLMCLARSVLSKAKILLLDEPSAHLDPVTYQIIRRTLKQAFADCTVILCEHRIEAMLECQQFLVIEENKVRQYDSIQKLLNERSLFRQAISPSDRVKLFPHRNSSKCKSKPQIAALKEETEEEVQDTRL
# Test: Cell Surface Expression-Horse Radish Peroxidase (CSE-HRP) assay
# Type: cell-based
# Details: CFBE41o-F508delCFTR-HRP cells; maximum at any tested concentration, normalized to on-plate positive control (3 μM) and DMSO
Answers are plain numbers, in %.

Below, each entry is followed by its recorded Maximum % activity result.
1) COC(=O)c1ccc([C@H]2C[C@@H](NC(=O)C3(c4ccc5c(c4)OC(F)(F)O5)CC3)CCO2)cc1 (racemic) [Example 13] = 110
2) COC(=O)c1cccc([C@H]2C[C@H](NC(=O)C3(c4ccc5c(c4)OC(F)(F)O5)CC3)CCO2)c1 (racemic) [Example 4] = 23
3) COC(=O)c1ccc([C@@H]2C[C@H](NC(=O)C3(c4ccc5c(c4)OC(F)(F)O5)CC3)CCO2)c(C)c1 (single isomer, unassigned) [Example 40] = 60

Go through the items and report each one's Maximum % activity.
1. O=C(O)c1ccc(C2CC(NC(=O)C3(c4ccc5c(c4)OC(F)(F)O5)CC3)CC(C3CC3)O2)cc1 (stereo not shown) [Example 44]
2. O=C(O)c1ccc([C@H]2C[C@H](NC(=O)C3(c4ccc5c(c4)OC(F)(F)O5)CC3)C[C@@H](c3ccccc3)O2)cc1 (racemic) [Example 49]
3. COc1ccc([C@H]2C[C@@H](NC(=O)C3(c4ccc5c(c4)OC(F)(F)O5)CC3)C[C@@H](c3ccc(C(=O)O)cc3)O2)cc1 (single isomer, unassigned) [Example 67]
4. COC(=O)c1ccc([C@H]2C[C@H](NC(=O)C3(c4ccc5c(c4)OC(F)(F)O5)CC3)C[C@@H](c3ccccc3)O2)cc1 (racemic) [Example 47]
5. O=C(O)c1cccc([C@H]2C[C@@H](NC(=O)C3(c4ccc5c(c4)OC(F)(F)O5)CC3)C[C@@H](c3ccccc3)O2)c1 [Example 27]

## Output
88
77
54
73
109

----------
# Study Target: F508delCFTR (Homo sapiens, UniProt P13569, DEL508-508)
# Test: Cell Surface Expression-Horse Radish Peroxidase (CSE-HRP) assay
# Details: CFBE41o-F508delCFTR-HRP cells, cell surface expression, luminescence readout; 18-24 hours at 33° C.; highest concentration tested 20 μM, 8-point curve
Please map values of EC50 to classes as shown: class A = under 1000 nM, class B = from 1000 nM up to 2000 nM, class C = 2000 nM and over

Solved cases (2 shown):
1) COC(=O)c1ccc([C@H]2C[C@@H](NC(=O)C3(c4ccc5c(c4)OC(F)(F)O5)CC3)C[C@@H](c3ccccc3)O2)cc1 (racemic) = class A
2) COC(=O)c1ccc([C@H]2CC(NC(=O)C3(c4ccc5c(c4)OC(F)(F)O5)CC3)C[C@@H](C3CC3)O2)cc1 (mixture of isomers) = class C

## Input Lab log: O=C(O)c1ccc([C@H]2C[C@H](NC(=O)C3(c4ccc5c(c4)OC(F)(F)O5)CC3)C[C@@H](c3ccccc3)O2)c(F)c1 (racemic) — assign EC50 category
## Output class C

## Input Also COc1ccc([C@@H]2C[C@H](NC(=O)C3(c4ccc5c(c4)OC(F)(F)O5)CC3)C[C@H](c3ccc(C(=O)O)cc3)O2)cc1 (racemic) [Example 57] ?
## Output class A

## Input Also O=C(N[C@@H]1CCO[C@@H](c2ccc(Br)cc2)C1)C1(c2ccc3c(c2)OC(F)(F)O3)CC1 ?
## Output class C

## Input Also COc1ccc([C@H]2C[C@@H](NC(=O)C3(c4ccc5c(c4)OC(F)(F)O5)CC3)C[C@@H](c3ccc(C(=O)O)cc3)O2)cc1 (single isomer, unassigned) ?
## Output class C

## Input Also Cc1cc(C(=O)O)ccc1[C@H]1C[C@@H](NC(=O)C2(c3ccc4c(c3)OC(F)(F)O4)CC2)CCO1 (stereo in doubt) [Example 37] ?
## Output class A

## Input Also O=C(O)c1cccc([C@H]2C[C@@H](NC(=O)C3(c4ccc5c(c4)OC(F)(F)O5)CC3)CCO2)c1 [Example 19] ?
## Output class C

## Input Also COC(=O)c1ccc([C@H]2C[C@@H](NC(=O)C3(c4ccc5c(c4)OC(F)(F)O5)CC3)CCO2)cc1 (racemic) [Example 13] ?
## Output class B

## Input Also O=C(O)c1cccc([C@@H]2C[C@H](NC(=O)C3(c4ccc5c(c4)OC(F)(F)O5)CC3)CCO2)c1 ?
## Output class C

## Input Also O=C(O)c1ccc([C@@H]2C[C@H](NC(=O)C3(c4ccc5c(c4)OC(F)(F)O5)CC3)C[C@H](c3ccccc3)O2)cc1 (single isomer, unassigned) ?
## Output class B

## Input Also Cc1cc(C(=O)O)ccc1[C@H]1C[C@H](NC(=O)C2(c3ccc4c(c3)OC(F)(F)O4)CC2)C[C@@H](c2ccccc2)O1 (racemic) [Example 64] ?
## Output class C

## Input Also O=C(O)c1ccc(C2CC(NC(=O)C3(c4ccc5c(c4)OC(F)(F)O5)CC3)CC(C3CC3)O2)cc1 (stereo not shown) ?
## Output class C

----------
# Study Target: F508delCFTR (Homo sapiens, UniProt P13569, DEL508-508)
# Construct: expressed in transfected cells; host or cells: CFBE41o- (CFBE41o-F508delCFTR-HRP), doxycycline-inducible
# Test: Cell Surface Expression-Horse Radish Peroxidase (CSE-HRP) assay
# Type: cell-based
# Details: CFBE41o-F508delCFTR-HRP cells; maximum at any tested concentration, normalized to on-plate positive control (3 μM) and DMSO
For each entry below, report its Maximum % activity value.
Numbers only, in %.

Below, each entry is followed by its recorded Maximum % activity result.
1) Cc1cc(C(=O)O)cc([C@@H]2C[C@H](NC(=O)C3(c4ccc5c(c4)OC(F)(F)O5)CC3)C[C@H](c3ccccc3)O2)c1 (single isomer, unassigned) = 38
2) CC1(C)C[C@H](NC(=O)C2(c3ccc4c(c3)OC(F)(F)O4)CC2)C[C@H](c2ccc(C(=O)O)cc2)O1 (racemic) = 89
3) Cc1cc(C(=O)O)cc([C@H]2C[C@@H](NC(=O)C3(c4ccc5c(c4)OC(F)(F)O5)CC3)C[C@@H](c3ccccc3)O2)c1 (racemic) [Example 73] = 90
4) O=C(O)c1ccccc1[C@H]1C[C@@H](NC(=O)C2(c3ccc4c(c3)OC(F)(F)O4)CC2)CCO1 (racemic) = 108

Go through the items and report each one's Maximum % activity.
1. COC(=O)c1ccc([C@H]2C[C@@H](NC(=O)C3(c4ccc5c(c4)OC(F)(F)O5)CC3)CC(C)(C)O2)cc1 (racemic)
2. COC(=O)c1ccccc1[C@H]1C[C@@H](NC(=O)C2(c3ccc4c(c3)OC(F)(F)O4)CC2)CCO1 (racemic)

## Output
[105, 116]

----------
# Study Target: F508delCFTR (Homo sapiens, UniProt P13569, DEL508-508)
# Test: Cell Surface Expression-Horse Radish Peroxidase (CSE-HRP) assay
# Details: CFBE41o-F508delCFTR-HRP cells, cell surface expression, luminescence readout; 18-24 hours at 33° C.; highest concentration tested 20 μM, 8-point curve
For each entry below, report its log10(EC50) value.
Hey, these are logged values: log10 of EC50, nM being the unit before logging.

Below, each entry is followed by its recorded log10(EC50) result.
1. O=C(O)c1ccc([C@H]2C[C@@H](NC(=O)C3(c4ccc5c(c4)OC(F)(F)O5)CC3)CCO2)cc1 [Example 31] = 2.89
2. O=C(N[C@H]1CCO[C@H](c2ccc(Br)cc2)C1)C1(c2ccc3c(c2)OC(F)(F)O3)CC1 = 3.89
3. CC(C)(O)c1cccc([C@H]2C[C@@H](NC(=O)C3(c4ccc5c(c4)OC(F)(F)O5)CC3)CCO2)c1 (racemic) = 3.32

Go through the items and report each one's log10(EC50).
1. O=C(O)c1ccccc1[C@H]1C[C@@H](NC(=O)C2(c3ccc4c(c3)OC(F)(F)O4)CC2)CCO1 (racemic)
2. COC(=O)c1ccc([C@@H]2C[C@H](NC(=O)C3(c4ccc5c(c4)OC(F)(F)O5)CC3)C[C@H](c3ccc(C(=O)OC)cc3)O2)cc1
3. Cc1cc(C(=O)O)cc([C@@H]2C[C@H](NC(=O)C3(c4ccc5c(c4)OC(F)(F)O5)CC3)C[C@H](c3ccccc3)O2)c1 (single isomer, unassigned)

## Output
[3.88, 2.88, 3.20]

----------
# Study Target: F508del/F508del CFTR (Homo sapiens, UniProt P13569, DEL508-508)
# Construct: cells isolated from CF patients with the homozygous mutation; endogenous in cells; host or cells: primary human bronchial epithelial (hBE) cells from F508del/F508del CF patients
# Test: Transepithelial Clamp Circuit (TECC-24) conductance assay on primary human bronchial epithelial cells
# Format: cell-based
# Details: primary hBE cells from F508del/F508delCFTR patients; relative to positive control (3 μM) coupled with control potentiator = 100%
# label = class 1 if Maximum % activity < 80% else class 0

1. Cc1cc(C(=O)O)ccc1[C@H]1C[C@H](NC(=O)C2(c3ccc4c(c3)OC(F)(F)O4)CC2)C[C@@H](c2ccccc2)O1 (racemic) = class 0
2. O=C(O)c1cccc([C@H]2C[C@@H](NC(=O)C3(c4ccc5c(c4)OC(F)(F)O5)CC3)C[C@@H](c3ccccc3)O2)c1 (racemic) [Example 24] = class 1
3. O=C(O)c1ccc([C@H]2C[C@@H](NC(=O)C3(c4ccc5c(c4)OC(F)(F)O5)CC3)C[C@@H](c3ccccc3)O2)cc1 (single isomer, unassigned) = class 1
4. O=C(O)c1cccc([C@H]2C[C@@H](NC(=O)C3(c4ccc5c(c4)OC(F)(F)O5)CC3)CCO2)c1 = class 0

As a next step, examine the compound that follows.
## Input In plain terms, does Cc1cc(C(=O)O)cc([C@H]2C[C@@H](NC(=O)C3(c4ccc5c(c4)OC(F)(F)O5)CC3)C[C@@H](c3ccccc3)O2)c1 (racemic) come in under 80% for Maximum % activity?
## Output class 0
